system: L1210; experiment: Antileukemic activity against mouse L1210 cells allografted in ip dosed BDF1 mouse administered 24 hrs; type: functional
measured-property: ILS30 (mg/kg)
Could you give me the number in mg/kg? Just the number is fine.

# example entries with known answers
compound	ILS30, mg/kg
O=P1(NCCCl)OCCC(OO)N1CCCl (stereo not drawn)	15
CS(=O)(=O)OCCN1C(OO)CCOP1(=O)N(CCCl)CCCl (stereo not drawn)	10
CN(CCCl)P1(=O)OCCC(OO)N1CCBr (stereo not drawn)	7

Query :: Identify ILS30 associated with the compound CS(=O)(=O)OCCNP1(=O)OCCC(OO)N1CCOS(C)(=O)=O (stereo not drawn)
Result :: 25

Query :: Return the recorded ILS30 value; entry: CN(CCCl)P1(=O)OCCC(OO)N1CCOS(C)(=O)=O (stereo not drawn)
Result :: 2

Query :: Output measured ILS30 for this item: CN(CCOS(C)(=O)=O)P1(=O)OCCC(OO)N1CCCl (stereo not drawn)
Result :: 3

Query :: Quick one: give measured ILS30 for CS(=O)(=O)OCCN1C(OO)CCOP1(=O)NCCCl (stereo not drawn)
Result :: 2

Query :: Please look at this compound and report its ILS30: CCS(=O)(=O)OCCN1C(OO)CCOP1(=O)N(C)CCCl (stereo not drawn)
Result :: 5

Query :: Answer with reported ILS30 of CN(CCBr)P1(=O)OCCC(OO)N1CCOS(C)(=O)=O (stereo not drawn)
Result :: 3

Query :: Please report ILS30 for the following compound: CCN(CCCl)P1(=O)OCCC(OO)N1CCOS(C)(=O)=O (stereo not drawn)
Result :: 6

Query :: Name the recorded ILS30 of the item O=P1(NCCBr)OCCC(OO)N1CCBr (stereo not drawn) in your answer.
Result :: 6

Query :: Please look at this compound and report its ILS30: CN(CCBr)P1(=O)OCCC(OO)N1CCCl (stereo not drawn)
Result :: 6

Query :: Specify measured ILS30 for CCS(=O)(=O)OCCN(C)P1(=O)OCCC(OO)N1CCCl (stereo not drawn) .
Result :: 10

* * *

Form field: EC50 (one value per entry).
system: L1210; experiment: Cytotoxicity against mouse L1210 cells assessed as growth inhibition after 72 hrs; type: functional; conditions: L1210, 72 h, read-out: ED50 (the source's name)
Please state the figure in µg/mL; there is no need to write the unit.

Query :: Name the value of EC50 reported for CCS(=O)(=O)OCCN(C)P1(=O)OCCC(OO)N1CCCl (stereo not drawn) when tested on L1210.
Result :: 0.8

Query :: Report the value of EC50 obtained on L1210 for CS(=O)(=O)OCCN1C(OO)CCOP1(=O)NCCCl (stereo not drawn) .
Result :: 0.8

Query :: # return EC50 of CN(CCCl)P1(=O)OCCC(OO)N1CCOS(C)(=O)=O (stereo not drawn) (system: L1210)
Result :: 0.8
